Reported thermal melting temperature is given for each of the following sequences.
- assayed-target: HLA-A*02:01;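 also: lysates heated 10 min at 37–73 °C, complexes pulled down with pan-HLA I antibody, peptide signal by DIA-MS relative to 37 °C, Tm where half the complex is unfolded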
- protocol-summary: thermal melting temperature (Tm) of peptide-HLA complex; higher = more thermostable pHLA complex
- measurement-parameters: C1R-A*02:01
Whole data set: some 1,100 sequences, median “thermal melting temperature (Tm) of peptide-HLA complex” near 58, cut for the lowest 2% near 42. This excerpt belongs to a sample that is enriched for the lowest values.

residue-string	thermal melting temperature [°C]
SLLQTLYKV	63.6
RLAEALPKQSV	41.8
ILLEHGADPNL	51.4
TVADKIHSV	55.7
